Target: Bile acid receptor (Homo sapiens) (UniProt Q96RI1)
Sequence (whole entry): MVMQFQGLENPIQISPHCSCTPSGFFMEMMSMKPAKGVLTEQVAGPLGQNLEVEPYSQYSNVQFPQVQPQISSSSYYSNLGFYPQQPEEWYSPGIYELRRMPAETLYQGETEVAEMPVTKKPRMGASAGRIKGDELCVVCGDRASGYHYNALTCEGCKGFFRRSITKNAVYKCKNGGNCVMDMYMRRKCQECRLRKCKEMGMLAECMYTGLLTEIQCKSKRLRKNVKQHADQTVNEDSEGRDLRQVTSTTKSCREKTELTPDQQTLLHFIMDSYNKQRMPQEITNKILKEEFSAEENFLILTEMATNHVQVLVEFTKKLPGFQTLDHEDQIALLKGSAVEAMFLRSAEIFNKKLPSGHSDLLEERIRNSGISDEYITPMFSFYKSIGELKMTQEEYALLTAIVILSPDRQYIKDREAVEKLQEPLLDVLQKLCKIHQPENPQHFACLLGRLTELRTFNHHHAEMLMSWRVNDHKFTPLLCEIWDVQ
Assay: Agonist activity at GAL4 DNA binding domain tagged FXR ligand binding domain (unknown origin) expressed in human HepG2 cells assessed as receptor transactivation measured by relative luciferase activity at 100 nM by luciferase reporter gene based mammalian one-hybrid assay relative to untreated control
Format: cell-based
Active and inactive are the calls of the source. No cut-off for these calls is given here.
parameter: Activity

- mol: "CO[C@H]1CC2=C(C(=O)C[C@@H](c3ccccc3)O2)[C@H]2CC(=O)O[C@@H]12"
  test-value: "inactive"
- mol: "O=C1C[C@@H]2C3=C(C[C@H](O)[C@@H]2O1)O[C@H](c1ccccc1)CC3=O"
  test-value: "inactive"
- mol: "CO[C@H]1CC2=C(C(=O)C[C@@H](c3ccccc3)O2)[C@@H]2CC(=O)O[C@H]12"
  test-value: "inactive"
- mol: "O=C1C[C@H]2C3=C(C[C@H](O)[C@H]2O1)O[C@H](c1ccccc1)CC3=O"
  test-value: "inactive"

* * *

target: Bile acid receptor (Homo sapiens); assay: Agonist activity at […] (unknown origin) expressed in human HepG2 cells co-expressing rat CYP7A1 gene promoter assessed as transrepression of CYP7A1 promoter driven luciferase activity at 1 uM relative to untreated control; format: cell-based
Active and inactive are the calls of the source. The calls are words filed in the database; no cut-off is given here.

- molecule: "O=C1C[C@H]2C3=C(C[C@H](O)[C@H]2O1)O[C@H](c1ccccc1)CC3=O [CRYPTOCHINONE B]"
  Activity: "Active"
- molecule: "CO[C@H]1CC2=C(C(=O)C[C@@H](c3ccccc3)O2)[C@H]2CC(=O)O[C@@H]12 [7-O-METHYLCRYPTOCHINONE A]"
  Activity: "inactive"
- molecule: "O=C1C[C@@H]2C3=C(C[C@H](O)[C@@H]2O1)O[C@H](c1ccccc1)CC3=O [CRYPTOCHINONE A]"
  Activity: "Active"
- molecule: "CO[C@H]1CC2=C(C(=O)C[C@@H](c3ccccc3)O2)[C@@H]2CC(=O)O[C@H]12 [7-O-METHYLCRYPTOCHINONE B]"
  Activity: "inactive"

* * *

molecular target: UniProt:Q96RI1; test: Agonist activity at […] (unknown origin) expressed in human HepG2 cells co-expressing human PLTP gene promoter assessed as transactivation of PLTP promoter driven luciferase activity at 100 nM relative to untreated control; assay type: cell-based
The source made the active and inactive calls. The rule behind the calls is not given here.
parameter: Activity

- mol: "O=C1C[C@H]2C3=C(C[C@H](O)[C@H]2O1)O[C@H](c1ccccc1)CC3=O"
  measured-on: "UniProt:Q96RI1"
  parameter: "Activity"
  test-value: "inactive"
- mol: "O=C1C[C@@H]2C3=C(C[C@H](O)[C@@H]2O1)O[C@H](c1ccccc1)CC3=O"
  measured-on: "UniProt:Q96RI1"
  parameter: "Activity"
  test-value: "inactive"
- mol: "CO[C@H]1CC2=C(C(=O)C[C@@H](c3ccccc3)O2)[C@H]2CC(=O)O[C@@H]12"
  measured-on: "UniProt:Q96RI1"
  parameter: "Activity"
  test-value: "inactive"
- mol: "CO[C@H]1CC2=C(C(=O)C[C@@H](c3ccccc3)O2)[C@@H]2CC(=O)O[C@H]12"
  measured-on: "UniProt:Q96RI1"
  parameter: "Activity"
  test-value: "inactive"

* * *

target: Peroxisome proliferator-activated receptor gamma (Homo sapiens) (UniProt P37231); assay: Agonist activity at PPARgamma (unknown origin) by receptor transactivation assay
Sequence (P37231 whole entry): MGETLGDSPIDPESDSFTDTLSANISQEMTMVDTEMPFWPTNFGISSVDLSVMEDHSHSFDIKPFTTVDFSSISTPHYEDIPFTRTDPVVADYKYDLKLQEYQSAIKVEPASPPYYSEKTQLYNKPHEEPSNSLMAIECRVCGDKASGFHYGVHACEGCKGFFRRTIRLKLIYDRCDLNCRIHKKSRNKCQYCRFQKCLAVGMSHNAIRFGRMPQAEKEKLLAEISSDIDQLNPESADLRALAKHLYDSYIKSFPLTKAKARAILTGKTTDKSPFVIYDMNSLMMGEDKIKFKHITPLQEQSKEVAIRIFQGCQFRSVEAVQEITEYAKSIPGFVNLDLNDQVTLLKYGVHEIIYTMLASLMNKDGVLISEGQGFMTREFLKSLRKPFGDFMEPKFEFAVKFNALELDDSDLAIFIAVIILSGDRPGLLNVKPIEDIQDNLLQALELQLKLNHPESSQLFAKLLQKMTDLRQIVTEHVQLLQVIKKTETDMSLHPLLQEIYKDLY
Active and inactive are the calls of the source. No cut-off for these calls is given here.

- mol: "O=C1C[C@@H]2C3=C(C[C@H](O)[C@@H]2O1)O[C@H](c1ccccc1)CC3=O"
  measured-on: "Peroxisome proliferator-activated receptor gamma (Homo sapiens) (UniProt P37231)"
  Activity: "inactive"
- mol: "CO[C@H]1CC2=C(C(=O)C[C@@H](c3ccccc3)O2)[C@@H]2CC(=O)O[C@H]12"
  measured-on: "Peroxisome proliferator-activated receptor gamma (Homo sapiens) (UniProt P37231)"
  Activity: "inactive"
- mol: "O=C1C[C@H]2C3=C(C[C@H](O)[C@H]2O1)O[C@H](c1ccccc1)CC3=O"
  measured-on: "Peroxisome proliferator-activated receptor gamma (Homo sapiens) (UniProt P37231)"
  Activity: "inactive"
- mol: "CO[C@H]1CC2=C(C(=O)C[C@@H](c3ccccc3)O2)[C@H]2CC(=O)O[C@@H]12"
  measured-on: "Peroxisome proliferator-activated receptor gamma (Homo sapiens) (UniProt P37231)"
  Activity: "inactive"
